- Test system: Wolbachia pipientis
- ASSAY DETAILS: Anti-Wolbachia Cell-Based Screen
- Format: functional
- Parameters: scale not given: in the data most compounds retested in dose-response had high values
- PARTICULARS: 5 µM
Screen size: about 48,000 compounds; about 13,000 (27%) showed an effect of 50% or more. The list shows a part of the results.
READOUT TYPE: Percent Effect (%)
Numbers only here, please. The scale is %.

Reported Percent Effect of CCC1=N[C@@]2(CC[C@@H]3CN(S(=O)(=O)CC)C[C@@H]32)C(=O)N1CC : 5.096

The value of Percent Effect measured for the compound COc1ccc2c(c1)Cc1c-2nc(N)c(C#N)c1C1CCOC1 (stereo not given) turned out to be 55.98

Note to self: Percent Effect recorded for Cc1cc(C)cc(-c2cc(C3CCOC3)c(C#N)c(N)n2)c1 (stereo not given) was 8.915

Form field Percent Effect, entry N#Cc1c(N)nc2c(c1C1CCOC1)CCc1cc(O)ccc1-2 (stereo not given) : 95.46

Measured Percent Effect, CS(=O)(=O)N[C@@H]1CCN(Cc2nccs2)[C@H]1Cc1ccncc1.O=C(O)C(F)(F)F.O=C(O)C(F)(F)F : -21.66
